Sourced from paper PMC7672075

Molecular target: TRF2^TRFH (TRF Homology domain of human TRF2, residues 42–245) (human)
Assay: ITC; MCPH1^TBM peptides at 1.0 mM in the syringe titrated into TRF2^TRFH at 0.1 mM in the sample cell; 20 °C; 25 mM Tris-HCl pH 8.0, 150 mM NaCl
Where no end group is shown, it is not given here. [ ]: non-standard residue; d: D form. pS = N[C@@H](COP(=O)(O)O)C(=O)O
Binary label based on Kd with cut-off 20 µM: below gives y, not below gives n.

1. SQETFEEKYRLAPTLSSTKGH [MCPH1^TBM peptide S333A, synthetic]; y
2. SQETFEEKYRL[pS]PTLSSTKGH (also: phosphoserine at S333, position in peptide not given here) [MCPH1^TBM peptide phosphorylated at S333, synthetic]; n
3. SQETFEEKYRLEPTLSSTKGH [MCPH1^TBM peptide S333E, synthetic]; y

Prompt line: Answer whether the binder SQETFEEKYRLSATLSSTKGH [MCPH1^TBM peptide P334A, synthetic] has Kd strictly less than 20 µM
Response line: n

Prompt line: What would you report for SQETFEEKYRLDPTLSSTKGH [MCPH1^TBM peptide S333D, synthetic] ?
Response line: n

Prompt line: Please do the same for SQETFEEKYRLSPTLSSTKGH [MCPH1^TBM peptide, wild type, synthetic] as well.
Response line: y
